Tested on: human HL60 cells
EXPERIMENT SUMMARY: SWATH-MS proteomics, differential protein representation, akirin2 KO vs WT HL60 cells
Type: cell-based
CONDITION NOTES: akirin2 KO vs WT HL60 cells; sheet "Under-represented in KO"
REPORTED ENDPOINT: Log (Fold Change)
The answer should be written as a number, with no unit following it.

Query: Log (Fold Change); subject: sp¦Q9BX68¦HINT2_HUMAN (protein, UniProt Q9BX68 18-163, looked up) Adenosine …: VAATGVRGGQVRGAAGVTDGNEVAKAQQATPGGAAPTIFSRILDKSLPADILYEDQQCLVFRDVAPQAPVHFLVIPKKPIPRISQAEEEDQQLLGHLLLVAKQTAKAEGLGDGYRLVINDGKLGAQSVYHLHIHVLGGRQLQWPPG
Response: -0.3662

Provenance of the data: paper PMC8298264
